molecular target: apo A2AR-V229C (Homo sapiens, UniProt P29274, V229C); assay: 25Mg NMR line width binding isotherm and Ca2+ competition; conditions: 50 mM 25Mg2+, increasing CaCl2, 50 µM apo-A2AR-V229C; read-out: Ki of Ca2+ displacement of Mg2+
Sequence (P29274 1-316 V229C limits assumed): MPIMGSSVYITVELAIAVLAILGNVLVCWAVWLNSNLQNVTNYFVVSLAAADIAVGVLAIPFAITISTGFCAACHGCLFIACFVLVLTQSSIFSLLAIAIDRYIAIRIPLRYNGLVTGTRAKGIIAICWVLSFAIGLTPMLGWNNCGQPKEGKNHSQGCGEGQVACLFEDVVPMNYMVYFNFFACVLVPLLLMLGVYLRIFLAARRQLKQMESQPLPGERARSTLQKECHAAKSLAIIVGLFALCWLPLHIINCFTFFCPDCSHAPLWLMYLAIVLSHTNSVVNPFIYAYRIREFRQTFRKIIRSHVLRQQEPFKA
metric_name: pKi
Keep in mind that pKi stands for -log10 of concentration in molar terms.

The compound listed as [Ca+2].[Cl-].[Cl-] has a reported pKi of 1.01

---

target: A2AR + Gs (Homo sapiens, UniProt P29274, V229C); construct: Flag (N); TEV site (N); His10 (H10) (C); expressed in transfected cells; host or cells: Sf9 insect cells, baculovirus co-infection (A2AR, Gαs, Gβγ); membranes; experiment: [3H]NECA binding in A2AR/Gs-infected Sf9 membranes; conditions: read-out: half-maximal cation concentration for enhancement of [3H]NECA binding; 10 nM [3H]NECA, 100 mM NaCl; listed as Ca2+
Sequence (P63092 whole entry partner, one chain of several): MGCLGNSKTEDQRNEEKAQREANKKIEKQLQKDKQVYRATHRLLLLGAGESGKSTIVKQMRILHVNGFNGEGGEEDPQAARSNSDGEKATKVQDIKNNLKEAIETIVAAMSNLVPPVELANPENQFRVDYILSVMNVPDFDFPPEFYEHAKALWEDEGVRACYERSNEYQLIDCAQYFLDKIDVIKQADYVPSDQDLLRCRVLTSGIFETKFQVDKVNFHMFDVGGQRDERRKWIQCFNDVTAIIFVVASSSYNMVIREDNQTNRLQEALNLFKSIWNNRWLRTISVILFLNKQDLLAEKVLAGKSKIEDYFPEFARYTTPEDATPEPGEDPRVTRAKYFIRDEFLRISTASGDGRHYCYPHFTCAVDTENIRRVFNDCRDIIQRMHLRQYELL
Sequence (P62873 whole entry partner, one chain of several): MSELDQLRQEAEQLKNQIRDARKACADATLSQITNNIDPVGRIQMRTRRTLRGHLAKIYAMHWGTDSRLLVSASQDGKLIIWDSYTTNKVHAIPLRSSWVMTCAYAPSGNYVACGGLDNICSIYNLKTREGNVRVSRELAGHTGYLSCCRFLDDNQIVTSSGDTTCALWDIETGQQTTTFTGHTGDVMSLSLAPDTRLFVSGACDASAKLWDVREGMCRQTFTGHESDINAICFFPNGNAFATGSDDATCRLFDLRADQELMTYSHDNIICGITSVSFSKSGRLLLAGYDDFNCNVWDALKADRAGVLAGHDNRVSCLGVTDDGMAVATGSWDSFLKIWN
Sequence (P59768 2-68 partner limits assumed, one chain of several): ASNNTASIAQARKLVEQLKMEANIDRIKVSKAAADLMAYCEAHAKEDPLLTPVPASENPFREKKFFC
metric_name: pEC50
Keep in mind that pEC50 stands for -log10 of concentration in molar terms.

The molecule listed as [Ca+2].[Cl-].[Cl-] has a reported pEC50 of 3.46

The reported measurements were obtained from paper PMC5893540.
